Answer each item with its documented MIC.
system: Streptococcus pneumoniae; experiment: Antibacterial activity against Streptococcus pneumoniae MTCC 1936 by broth microdilution method; assay type: functional
I only need the number, in µg/mL, no unit after it.

Can you share its MIC? I mean this compound: Cc1ccc(NN2C(N)=C(C#N)C(c3cc4cc(Cl)ccc4nc3Cl)C3=C2CC(C)(C)CC3=O)cc1 (stereo unspecified)
500

What value of MIC has been recorded for this entry: CC1(C)S[C@@H]2[C@H](NC(=O)[C@H](N)c3ccccc3)C(=O)N2[C@H]1C(=O)O [AMPICILLIN]
100

What value of MIC has been recorded for this entry: Cc1ccc2nc(Cl)c(C3C(C#N)=C(N)N(Nc4ccc(Br)cc4)C4=C3C(=O)CC(C)(C)C4)cc2c1 (stereo unspecified)
250

Quick one: MIC for CC1(C)CC(=O)C2=C(C1)N(Nc1ccc(Cl)cc1)C(N)=C(C#N)C2c1cc2ccccc2nc1Cl (stereo unspecified) ?
500

// lookup MIC for CC1(C)CC(=O)C2=C(C1)N(Nc1ccc(F)cc1)C(N)=C(C#N)C2c1cc2ccccc2nc1Cl (stereo unspecified)
500

For the compound CCn1cc(C(=O)O)c(=O)c2cc(F)c(N3CCNCC3)cc21 [NORFLOXACIN] , what MIC is on record?
10

Using the record for CC1(C)CC(=O)C2=C(C1)N(Nc1ccc(F)cc1)C(N)=C(C#N)C2c1cc2cc(Cl)ccc2nc1Cl (stereo unspecified) , report its MIC.
200

Look at this compound and give its reported MIC. CC1(C)CC(=O)C2=C(C1)N(Nc1ccc(Br)cc1)C(N)=C(C#N)C2c1cc2ccccc2nc1Cl (stereo unspecified)
100

Tell me the measured MIC of CC1(C)CC(=O)C2=C(C1)N(Nc1ccccc1)C(N)=C(C#N)C2c1cc2cc(Cl)ccc2nc1Cl (stereo unspecified) , please.
1000

Can you look up the measured MIC of COc1ccc(NN2C(N)=C(C#N)C(c3cc4ccccc4nc3Cl)C3=C2CC(C)(C)CC3=O)cc1 (stereo unspecified) for me?
200

What does the data say about its MIC? Entry: Cc1ccc(NN2C(N)=C(C#N)C(c3cc4cc(C)ccc4nc3Cl)C3=C2CC(C)(C)CC3=O)cc1 (stereo unspecified)
200

====

test system: Escherichia coli; assay: Antibacterial activity against Escherichia coli MTCC 443 by broth microdilution method; type: functional
Kindly supply the reported MIC values for the records listed here.
Hey, just the number and the unit after it is fine.

Which MIC is listed for Cc1ccc2nc(Cl)c(C3C(C#N)=C(N)N(Nc4ccc(Br)cc4)C4=C3C(=O)CC(C)(C)C4)cc2c1 (stereo not drawn) ?
250 µg/mL

Look up MIC for this compound: COc1ccc(NN2C(N)=C(C#N)C(c3cc4cc(C)ccc4nc3Cl)C3=C2CC(C)(C)CC3=O)cc1 (stereo not drawn)
250 µg/mL

What does the data say about its MIC? Entry: COc1ccc2nc(Cl)c(C3C(C#N)=C(N)N(Nc4ccccc4)C4=C3C(=O)CC(C)(C)C4)cc2c1 (stereo not drawn)
250 µg/mL

Data request, read-out MIC, for COc1ccc(NN2C(N)=C(C#N)C(c3cc4cc(Cl)ccc4nc3Cl)C3=C2CC(C)(C)CC3=O)cc1 (stereo not drawn)
250 µg/mL

Form field: reported MIC of COc1ccc2nc(Cl)c(C3C(C#N)=C(N)N(Nc4ccc(Cl)cc4)C4=C3C(=O)CC(C)(C)C4)cc2c1 (stereo not drawn)
250 µg/mL

Query: MIC; subject: CCn1cc(C(=O)O)c(=O)c2cc(F)c(N3CCNCC3)cc21
10 µg/mL

Value lookup for MIC; key = Cc1ccc(NN2C(N)=C(C#N)C(c3cc4cc(C)ccc4nc3Cl)C3=C2CC(C)(C)CC3=O)cc1 (stereo not drawn)
500 µg/mL

Recorded MIC for O=C(O)c1cn(C2CC2)c2cc(N3CCNCC3)c(F)cc2c1=O , please?
25 µg/mL

====

Please go through the items and note down their log10(MIC).
test system: Streptococcus pneumoniae; assay: Antibacterial activity against Streptococcus pneumoniae MTCC 1936 by broth microdilution method; type: functional
Heads up: the numbers are on a log10 scale; they represent MIC in µg/mL.

What does the record list as log10(MIC) for O=C(N[C@H](CO)[C@H](O)c1ccc([N+](=O)[O-])cc1)C(Cl)Cl [CHLORAMPHENICOL] ?
1.70

Would you mind telling me what log10(MIC) value was observed for COc1ccc(NN2C(N)=C(C#N)C(c3cc4cc(C)ccc4nc3Cl)C3=C2CC(C)(C)CC3=O)cc1 (configuration not stated) ?
2.00

Report log10(MIC) for CC1(C)CC(=O)C2=C(C1)N(Nc1ccc(Cl)cc1)C(N)=C(C#N)C2c1cc2cc(Cl)ccc2nc1Cl (configuration not stated) please.
2.30

Any idea what its log10(MIC) is? The compound is COc1ccc2nc(Cl)c(C3C(C#N)=C(N)N(Nc4ccc(F)cc4)C4=C3C(=O)CC(C)(C)C4)cc2c1 (configuration not stated)
2.30

For the compound Cc1ccc2nc(Cl)c(C3C(C#N)=C(N)N(Nc4ccc(Cl)cc4)C4=C3C(=O)CC(C)(C)C4)cc2c1 (configuration not stated) , what log10(MIC) is on record?
2.40

GET /values?readout=log10(MIC)&item= O=C(O)c1cn(C2CC2)c2cc(N3CCNCC3)c(F)cc2c1=O [CIPROFLOXACIN]
1.70

I have this compound here, COc1ccc2nc(Cl)c(C3C(C#N)=C(N)N(Nc4ccccc4)C4=C3C(=O)CC(C)(C)C4)cc2c1 (configuration not stated) , and I need its recorded log10(MIC).
2.40

I'd like to know its log10(MIC). The compound in question is COc1ccc2nc(Cl)c(C3C(C#N)=C(N)N(Nc4ccc(Cl)cc4)C4=C3C(=O)CC(C)(C)C4)cc2c1 (configuration not stated)
2.00

Returns the measured log10(MIC) for the input compound. Input: Cc1ccc2nc(Cl)c(C3C(C#N)=C(N)N(Nc4ccc(F)cc4)C4=C3C(=O)CC(C)(C)C4)cc2c1 (configuration not stated)
2.40

Consider the compound COc1ccc2nc(Cl)c(C3C(C#N)=C(N)N(Nc4ccc(Br)cc4)C4=C3C(=O)CC(C)(C)C4)cc2c1 (configuration not stated) and give its measured log10(MIC).
2.40

Can you look up the measured log10(MIC) of COc1ccc2nc(Cl)c(C3C(C#N)=C(N)N(Nc4ccc(C)cc4)C4=C3C(=O)CC(C)(C)C4)cc2c1 (configuration not stated) for me?
2.30

Requested field: log10(MIC). Item: Cc1ccc(NN2C(N)=C(C#N)C(c3cc4ccccc4nc3Cl)C3=C2CC(C)(C)CC3=O)cc1 (configuration not stated)
2.70

May I ask what log10(MIC) has been recorded for Cc1ccc2nc(Cl)c(C3C(C#N)=C(N)N(Nc4ccccc4)C4=C3C(=O)CC(C)(C)C4)cc2c1 (configuration not stated) ?
2.40

What value of log10(MIC) has been reported for the following compound? CC1(C)CC(=O)C2=C(C1)N(Nc1ccc(Br)cc1)C(N)=C(C#N)C2c1cc2cc(Cl)ccc2nc1Cl (configuration not stated)
2.30

So what does the record say about log10(MIC) for COc1ccc(NN2C(N)=C(C#N)C(c3cc4cc(Cl)ccc4nc3Cl)C3=C2CC(C)(C)CC3=O)cc1 (configuration not stated) ?
2.40

Which value of log10(MIC) has been reported for CC1(C)CC(=O)C2=C(C1)N(Nc1ccccc1)C(N)=C(C#N)C2c1cc2ccccc2nc1Cl (configuration not stated) in the records?
2.30

Name the recorded log10(MIC) for COc1ccc(NN2C(N)=C(C#N)C(c3cc4cc(OC)ccc4nc3Cl)C3=C2CC(C)(C)CC3=O)cc1 (configuration not stated) .
1.40

====

tested on: Plasmodium falciparum; assay: Antimalarial activity against trophozoite stage of chloroquine-sensitive Plasmodium falciparum 3D7 infected in human erythrocytes after 48 hrs; type: functional, organism-based; conditions: 3D7, 48 h
Give log10 IC50 for every item shown.
Values below are the log10 of the recorded IC50, with µg/mL as the unit.

Quick one: log10 IC50 of COc1ccc2nc(Cl)c(C3C(C#N)=C(N)N(Nc4ccc(Cl)cc4)C4=C3C(=O)CC(C)(C)C4)cc2c1 (centres undefined) ?
-2.05

Can you look up the measured log10 IC50 of CC1(C)CC(=O)C2=C(C1)N(Nc1ccccc1)C(N)=C(C#N)C2c1cc2cc(Cl)ccc2nc1Cl (centres undefined) for me?
-0.68

# get_value(readout='log10 IC50', item= Cc1ccc2nc(Cl)c(C3C(C#N)=C(N)N(Nc4ccc(Br)cc4)C4=C3C(=O)CC(C)(C)C4)cc2c1 (centres undefined) )
-1.92

# lookup: log10 IC50 of Cc1ccc(NN2C(N)=C(C#N)C(c3cc4cc(C)ccc4nc3Cl)C3=C2CC(C)(C)CC3=O)cc1 (centres undefined)
-0.66

Quick check: log10 IC50 of Cc1ccc2nc(Cl)c(C3C(C#N)=C(N)N(Nc4ccc(Cl)cc4)C4=C3C(=O)CC(C)(C)C4)cc2c1 (centres undefined) ?
-2.10

Name the recorded log10 IC50 for Cc1ccc(NN2C(N)=C(C#N)C(c3cc4ccccc4nc3Cl)C3=C2CC(C)(C)CC3=O)cc1 (centres undefined) .
-2.30

Report log10 IC50 for CC1(C)CC(=O)C2=C(C1)N(Nc1ccc(Cl)cc1)C(N)=C(C#N)C2c1cc2ccccc2nc1Cl (centres undefined) please.
-0.38

Bench note: what log10 IC50 did COc1ccc(NN2C(N)=C(C#N)C(c3cc4cc(OC)ccc4nc3Cl)C3=C2CC(C)(C)CC3=O)cc1 (centres undefined) show?
-1.72

Consider the compound Cc1ccc2nc(Cl)c(C3C(C#N)=C(N)N(Nc4ccc(F)cc4)C4=C3C(=O)CC(C)(C)C4)cc2c1 (centres undefined) and give its measured log10 IC50.
-1.33

# log10 IC50 lookup, item COc1ccc(NN2C(N)=C(C#N)C(c3cc4ccccc4nc3Cl)C3=C2CC(C)(C)CC3=O)cc1 (centres undefined)
-1.60

Return reported log10 IC50; argument: CC1(C)CC(=O)C2=C(C1)N(Nc1ccc(F)cc1)C(N)=C(C#N)C2c1cc2cc(Cl)ccc2nc1Cl (centres undefined)
-0.81

Using the record for CC1(C)CC(=O)C2=C(C1)N(Nc1ccc(Cl)cc1)C(N)=C(C#N)C2c1cc2cc(Cl)ccc2nc1Cl (centres undefined) , report its log10 IC50.
-1.55

Requested read-out: log10 IC50. Entry: COc1ccc(NN2C(N)=C(C#N)C(c3cc4cc(C)ccc4nc3Cl)C3=C2CC(C)(C)CC3=O)cc1 (centres undefined)
-0.27

Given the entry CC1(C)CC(=O)C2=C(C1)N(Nc1ccc(Br)cc1)C(N)=C(C#N)C2c1cc2cc(Cl)ccc2nc1Cl (centres undefined) , report its measured log10 IC50.
-1.10

Every entry's value here was drawn from ChEMBL document CHEMBL2040757.
